Target: RARalpha (Homo sapiens, UniProt P10276)
Sequence (P10276 183-417 limits assumed): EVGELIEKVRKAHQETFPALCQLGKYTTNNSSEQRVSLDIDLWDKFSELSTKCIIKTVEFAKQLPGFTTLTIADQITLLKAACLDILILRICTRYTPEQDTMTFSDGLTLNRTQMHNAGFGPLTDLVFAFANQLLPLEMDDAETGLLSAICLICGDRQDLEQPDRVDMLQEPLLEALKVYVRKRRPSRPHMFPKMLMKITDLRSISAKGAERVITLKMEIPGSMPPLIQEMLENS
Assay: Transactivation test, HeLa reporter cells (RARalpha)
Settings: apparent Kd, Schild regression against reference antagonist, HeLa luciferase reporter; read-out: RARalpha Kdapp
Readout Label: pKd
pKd is defined as minus the log10 of a concentration measured in mol/L.

Entry CC1(C)CCC(C)(C)c2cc(C(COc3ccc(C(=O)O)c(O)c3)=NO)ccc21 ; pKd = 5.39
